Entries and their percentage of EdU-negative values follow.
Tested on: hTERT-HMEC;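 also: secreted proteins added to cultured cells, EdU pulse at the end, nuclei found by Hoechst imaging, EdU status from nuclear versus surrounding ring intensity ratio, PBS as neutral control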
EXPERIMENTAL PROTOCOL: percentage of EdU-negative (G0-arrested) nuclei per well, 72 h; higher = more G0 arrest
CONDITION LABEL: protein concentration 0.225 µM; reference: sequence is the full UniProt precursor, the tested protein was the secreted form or ectodomain

MKALGAVLLALLLFGRPGRGQTQQEEEEEDEDHGPDDYDEEDEDEVEEEETNRLPGGRSRVLLRCYTCKSLPRDERCNLTQNCSHGQTCTTLIAHGNTESGLLTTHSTWCTDSCQPITKTVEGTQVTMTCCQSSLCNVPPWQSSRVQDPTGKGAGGPRGSSETVGAALLLNLLAGLGAMGARRP [Q8IV16]
4.82%

As a next step, examine the sequence that follows.
GET /value?item= MGCLLFLLLWALLQAWGSAEVPQRLFPLRCLQISSFANSSWTRTDGLAWLGELQTHSWSNDSDTVRSLKPWSQGTFSDQQWETLQHIFRVYRSSFTRDVKEFAKMLRLSYPLELQVSAGCEVHPGNASNNFFHVAFQGKDILSFQGTSWEPTQEAPLWVNLAIQVLNQDKWTRETVQWLLNGTCPQFVSGLLESGKSELKKQVKPKAWLSRGPSPGPGRLLLVCHVSGFYPKPVWVKWMRGEQEQQGTQPGDILPNADETWYLRATLDVVAGEAAGLSCRVKHSSLEGQDIVLYWGGSYTSMGLIALAVLACLLFLLIVGFTSRFKRQTSYQGVL &field=percentage of EdU-negative returns 5.04%
